Run description: self-splicing fitness, log relative to wild type (ln ratio); higher = more splicing; Tetrahymena group I intron in knt gene, E. coli kanamycin selection, DiMSum; sequences stand for … in CUCUCU…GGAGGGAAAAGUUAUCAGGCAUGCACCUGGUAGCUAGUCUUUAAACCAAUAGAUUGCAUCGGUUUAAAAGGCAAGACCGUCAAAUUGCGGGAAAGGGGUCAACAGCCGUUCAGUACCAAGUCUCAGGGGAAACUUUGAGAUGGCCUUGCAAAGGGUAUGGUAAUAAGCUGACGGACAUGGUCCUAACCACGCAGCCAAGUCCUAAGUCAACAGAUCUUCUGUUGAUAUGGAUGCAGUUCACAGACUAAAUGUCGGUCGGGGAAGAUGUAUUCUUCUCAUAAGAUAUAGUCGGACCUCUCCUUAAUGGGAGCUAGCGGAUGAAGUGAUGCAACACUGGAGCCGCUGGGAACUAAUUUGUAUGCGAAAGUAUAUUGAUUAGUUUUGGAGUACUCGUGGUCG;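 note: selection with 25 µg/mL kanamycin versus none on LB agar overnight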
Setup conditions: 37 °C
Criterion: self-splicing fitness (ln) meeting or surpassing -2. Met: Criterion met. Not met: Criterion not met.

query: Kindly determine if self-splicing fitness (ln) recorded for CAACAGCAAUAUUACGCUGU is above or exactly -2.
result: Criterion not met

Next:
query: Kindly determine if self-splicing fitness (ln) recorded for AGACAGCAAUAUUACGAUAU is above or exactly -2.
result: Criterion met

query: Subsequent entry: UAGUAGCAAUAUUACGCUUC
result: Criterion met

query: Subsequent entry: CCACAGCAAUAUUACGGAGG
result: Criterion met

query: Subsequent entry: AUGUAGCAAUAUUACGCUGU
result: Criterion met

query: Subsequent entry: CAUCAGCAAUAUUACGGGCC
result: Criterion not met

query: Subsequent entry: AGGCAGCAAUAUUACGAAAC
result: Criterion met

query: Subsequent entry: CGUUAGCAAUAUUACGUUUG
result: Criterion met

query: Subsequent entry: UGCAAGCAAUAUUACGAAUU
result: Criterion not met

query: Subsequent entry: CCAUAGCAAUAUUACGGUGU
result: Criterion not met

query: Subsequent entry: GUGAAGCAAUAUUACGGACG
result: Criterion met

---

Run description: self-splicing fitness, log relative to wild type (ln ratio); higher = more splicing; Tetrahymena group I intron in knt gene, E. coli kanamycin selection, DiMSum; sequences stand for … in CUCUCU…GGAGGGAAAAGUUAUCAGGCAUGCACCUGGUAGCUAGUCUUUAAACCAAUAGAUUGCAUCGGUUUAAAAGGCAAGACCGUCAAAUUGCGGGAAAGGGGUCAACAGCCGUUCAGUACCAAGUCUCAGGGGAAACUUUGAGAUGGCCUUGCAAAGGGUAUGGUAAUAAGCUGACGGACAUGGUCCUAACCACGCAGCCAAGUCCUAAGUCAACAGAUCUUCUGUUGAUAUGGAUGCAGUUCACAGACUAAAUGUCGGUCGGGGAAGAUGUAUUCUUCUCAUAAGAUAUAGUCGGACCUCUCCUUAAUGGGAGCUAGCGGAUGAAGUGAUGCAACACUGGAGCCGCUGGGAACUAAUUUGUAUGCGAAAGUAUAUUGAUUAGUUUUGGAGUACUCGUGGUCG
Setup conditions: 30 °C
Measured self-splicing fitness (ln), listed per entry.

Look over these answered cases.
query: Name the recorded self-splicing fitness (ln) for UCCUAGCAAUAUUACGGGAA .
result: -1.84

query: Subsequent entry: CAGCAGCAAUAUUACGAUUC
result: -3.27

Next:
query: Name the recorded self-splicing fitness (ln) for UAAUAGCAAUAUUACGGCGA .
result: -1.6

query: Subsequent entry: AUUGAGCAAUAUUACGAGCU
result: -3.6

query: Subsequent entry: UGAAAGCAAUAUUACGAACA
result: -0.213

query: Subsequent entry: GUAGAGCAAUAUUACGUAGA
result: -4.79

---

Run description: self-splicing fitness, log relative to wild type (ln ratio); higher = more splicing; Tetrahymena group I intron in knt gene, E. coli kanamycin selection, DiMSum; sequences stand for … in CUCUCU…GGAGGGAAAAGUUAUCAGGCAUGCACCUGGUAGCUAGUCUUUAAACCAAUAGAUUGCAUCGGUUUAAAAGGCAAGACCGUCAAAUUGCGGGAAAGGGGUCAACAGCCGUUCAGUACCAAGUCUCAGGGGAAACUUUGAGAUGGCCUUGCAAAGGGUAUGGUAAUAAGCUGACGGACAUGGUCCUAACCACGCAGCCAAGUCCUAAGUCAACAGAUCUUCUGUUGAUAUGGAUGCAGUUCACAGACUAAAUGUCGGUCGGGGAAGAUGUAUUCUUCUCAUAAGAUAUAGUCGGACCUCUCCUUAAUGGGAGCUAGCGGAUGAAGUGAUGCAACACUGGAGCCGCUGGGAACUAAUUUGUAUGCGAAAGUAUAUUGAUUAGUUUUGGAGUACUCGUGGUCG
Setup conditions: 37 °C
Criterion: self-splicing fitness (ln) meeting or surpassing -0.3. Met: 1 (yes). Not met: 0 (no).

Solved entries:
query: Kindly determine if self-splicing fitness (ln) recorded for GCAUAGCAAUAUUACGACUU is above or exactly -0.3.
result: 1 (yes)

query: Subsequent entry: ACAAAGCAAUAUUACGAUGC
result: 0 (no)

query: Subsequent entry: GGUUAGCAAUAUUACGUUCG
result: 1 (yes)

Attention now turns to another entry.
query: Kindly determine if self-splicing fitness (ln) recorded for CAAGAGCAAUAUUACGCCAG is above or exactly -0.3.
result: 0 (no)

---

Run description: self-splicing fitness, log relative to wild type (ln ratio); higher = more splicing; Tetrahymena group I intron in knt gene, E. coli kanamycin selection, DiMSum; sequences stand for … in CUCUCU…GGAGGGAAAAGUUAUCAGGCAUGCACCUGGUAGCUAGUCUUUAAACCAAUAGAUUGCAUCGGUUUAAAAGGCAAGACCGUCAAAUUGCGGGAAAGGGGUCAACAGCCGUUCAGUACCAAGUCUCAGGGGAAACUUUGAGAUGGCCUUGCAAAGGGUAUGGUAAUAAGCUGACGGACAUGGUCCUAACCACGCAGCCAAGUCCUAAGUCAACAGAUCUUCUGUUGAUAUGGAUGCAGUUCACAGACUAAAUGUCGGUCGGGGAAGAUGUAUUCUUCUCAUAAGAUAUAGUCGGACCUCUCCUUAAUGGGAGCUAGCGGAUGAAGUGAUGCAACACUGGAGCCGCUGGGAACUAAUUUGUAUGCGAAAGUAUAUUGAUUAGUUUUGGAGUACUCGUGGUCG
Setup conditions: 37 °C
Criterion: self-splicing fitness (ln) meeting or surpassing -1. Met: yes. Not met: no.

Solved entries:
query: Kindly determine if self-splicing fitness (ln) recorded for GCUAAGCAAUAUUACGCCCG is above or exactly -1.
result: yes

query: Subsequent entry: CUUCAGCAAUAUUACGUAAC
result: no

query: Subsequent entry: GCCGAGCAAUAUUACGGGAA
result: yes

Next:
query: Kindly determine if self-splicing fitness (ln) recorded for UGGAAGCAAUAUUACGGUUC is above or exactly -1.
result: no

query: Subsequent entry: GUCGAGCAAUAUUACGUCUC
result: yes

query: Subsequent entry: GUAGAGCAAUAUUACGAAAA
result: yes

query: Subsequent entry: GGGUAGCAAUAUUACGUAGA
result: yes

query: Subsequent entry: CUUGAGCAAUAUUACGGAGU
result: no

query: Subsequent entry: AAUAAGCAAUAUUACGGGAC
result: no

---

Run description: self-splicing fitness, log relative to wild type (ln ratio); higher = more splicing; Tetrahymena group I intron in knt gene, E. coli kanamycin selection, DiMSum; sequences stand for … in CUCUCU…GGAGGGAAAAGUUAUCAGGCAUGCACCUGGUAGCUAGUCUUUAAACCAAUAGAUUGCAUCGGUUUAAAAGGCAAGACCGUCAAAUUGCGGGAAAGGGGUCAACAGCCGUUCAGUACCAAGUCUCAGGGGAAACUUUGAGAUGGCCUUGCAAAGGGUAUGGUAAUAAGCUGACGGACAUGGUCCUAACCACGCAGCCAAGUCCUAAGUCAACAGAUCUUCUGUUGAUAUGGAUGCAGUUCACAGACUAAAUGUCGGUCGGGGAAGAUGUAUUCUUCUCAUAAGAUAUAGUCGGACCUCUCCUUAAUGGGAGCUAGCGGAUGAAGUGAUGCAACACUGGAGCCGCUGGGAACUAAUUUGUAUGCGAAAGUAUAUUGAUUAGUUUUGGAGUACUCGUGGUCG
Setup conditions: 30 °C
Measured self-splicing fitness (ln), listed per entry.

query: Name the recorded self-splicing fitness (ln) for CAACAGCAAUAUUACGACGC .
result: -0.56

query: Subsequent entry: CUACAGCAAUAUUACGCUAU
result: -4.01

query: Subsequent entry: AGACAGCAAUAUUACGAAAG
result: -2.18

query: Subsequent entry: CAAUAGCAAUAUUACGUGGG
result: -3.7

query: Subsequent entry: AGCCAGCAAUAUUACGGACA
result: -0.814

Next:
query: Name the recorded self-splicing fitness (ln) for UAUUAGCAAUAUUACGUUAC .
result: -3.17

query: Subsequent entry: AUCUAGCAAUAUUACGCGUU
result: -1.76

query: Subsequent entry: AUCAAGCAAUAUUACGGGAA
result: -1.87
